Kindly state TGI for each of the entries shown.
System: HCT-116 colon
test-name: NCI tumour cell line growth inhibition, 48 h

The cases that follow already have their TGI on record.
CC1=C2C(=C[C@@](C)(COC(=O)c3ccc(S(=O)(=O)F)cc3)[C@@H]2O)C(=O)[C@](C)(O)C12CC2 ... 2.5 µM
COc1ccc(NC2=C(Cl)C(=O)C(C)=C(C)C2=O)cc1 ... 4.37 µM
CC(C)C(=O)Nc1ccc(-c2nc(-c3cccc(O)c3)c(-c3ccnc(Br)c3)[nH]2)cc1 ... 7.68 µM

Query :: // returns reported TGI for input O=C(N/N=C/c1cccs1)c1[nH]c2ccc(Br)cc2c1-c1ccccc1
Result :: > 100 µM

---

Test system: SF-268 CNS
test-name: NCI tumour cell line growth inhibition, 48 h
endpoint-label: TGI (µM)
Numbers only, in µM.

COc1ccc(NC2=C(Cl)C(=O)C(C)=C(C)C2=O)cc1 ... 52.2
CC1=C2C(=C[C@@](C)(COC(=O)c3ccc(S(=O)(=O)F)cc3)[C@@H]2O)C(=O)[C@](C)(O)C12CC2 ... 6.13

Query :: Checklist item: TGI tested on SF-268 CNS, entry CC(C)C(=O)Nc1ccc(-c2nc(-c3cccc(O)c3)c(-c3ccnc(Br)c3)[nH]2)cc1 , value?
Result :: 40

---

Kindly state TGI for each of the entries shown.
Test system: KM12 colon
test-name: NCI tumour cell line growth inhibition, 48 h
One number for each entry, in µM.

COc1ccc(NC2=C(Cl)C(=O)C(C)=C(C)C2=O)cc1 ... 44.3

Would you mind listing TGI for each of the following compounds?
1. CC(C)C(=O)Nc1ccc(-c2nc(-c3cccc(O)c3)c(-c3ccnc(Br)c3)[nH]2)cc1
2. CC1=C2C(=C[C@@](C)(COC(=O)c3ccc(S(=O)(=O)F)cc3)[C@@H]2O)C(=O)[C@](C)(O)C12CC2

Result ::
1: 21.7; 2: 24.9
